- Target Or System: hcGAS (Homo sapiens, UniProt Q8N884)
- Sequence (Q8N884 whole entry): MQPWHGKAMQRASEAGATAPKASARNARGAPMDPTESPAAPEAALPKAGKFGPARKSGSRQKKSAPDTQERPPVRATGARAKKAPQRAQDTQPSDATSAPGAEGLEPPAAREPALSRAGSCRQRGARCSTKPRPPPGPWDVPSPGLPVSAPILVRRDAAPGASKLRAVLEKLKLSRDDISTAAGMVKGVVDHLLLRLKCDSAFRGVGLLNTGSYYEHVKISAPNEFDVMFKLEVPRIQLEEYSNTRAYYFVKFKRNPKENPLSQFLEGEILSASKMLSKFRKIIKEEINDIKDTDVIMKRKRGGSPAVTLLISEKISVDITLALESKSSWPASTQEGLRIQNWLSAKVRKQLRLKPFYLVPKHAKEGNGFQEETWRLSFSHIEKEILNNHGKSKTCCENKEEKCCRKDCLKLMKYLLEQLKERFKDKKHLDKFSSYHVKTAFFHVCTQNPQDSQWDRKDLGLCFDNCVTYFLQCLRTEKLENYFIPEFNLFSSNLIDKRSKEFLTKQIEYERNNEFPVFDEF
- Assay Name: hcGAS LCMS assay (direct measurement of cGAMP production)
- Format: biochemical
- Test Settings: 0.5 nM hcGAS, 100 μM ATP, 100 μM GTP, 25 nM dsDNA, 4 h incubation
Reported Property: IC50

Please review the following examples before continuing.
(Q) State the recorded IC50 for this entry: COC[C@H]1CCN1c1cc(C(=O)Nc2nnc(-n3nccc3C)s2)oc(=O)c1OC
(A) 5 to 20 nM

(Q) Look up IC50 for this molecule: COc1c(N[C@@H]2COC[C@H]2OC)cc(C(=O)Nc2nnc(-n3nccc3C)s2)oc1=O
(A) 5 to 20 nM

// for each molecule in input: emit IC50
1. COc1c(N[C@H]2CCC[C@@H]2OC)cc(C(=O)Nc2nnc(-n3nccc3C)s2)oc1=O (single isomer, unassigned) [4*]
2. COc1c(N[C@H]2CCC[C@H]2O)cc(C(=O)Nc2nnc(-c3c(Cl)ccn3C)s2)oc1=O [Compound 83]
3. COc1c(NCCOC2CC2)cc(C(=O)Nc2nnc(-n3nccc3C)s2)oc1=O
4. COC[C@@H]1CCN1c1cc(C(=O)Nc2nnc(-n3nccc3C)s2)oc(=O)c1OC
5. COc1c(N[C@@H]2CCC[C@@H]2O)cc(C(=O)Nc2nnc(-n3nccc3C)s2)oc1=O (racemic) [Rac-23]
6. COCCNc1cc(C(=O)Nc2nnc(-c3c(Cl)ccn3C)s2)oc(=O)c1OC
7. COc1c(N2CCCCC2=O)cc(C(=O)Nc2nnc(-n3nccc3C)s2)oc1=O
8. COc1c(N[C@@H]2c3ccccc3C[C@@H]2O)cc(C(=O)Nc2nnc(-n3nccc3C)s2)oc1=O (racemic)

(A)
1. 5 to 20 nM
2. < 5 nM
3. 60 to 200 nM
4. 5 to 20 nM
5. < 5 nM
6. < 5 nM
7. < 5 nM
8. ≥ 200 nM

Provide reported IC50 for each item, in the same order as listed.
1. COC[C@H]1CCCN1c1cc(C(=O)Nc2nnc(-n3nccc3C)s2)oc(=O)c1OC
2. COc1c(N[C@H]2CCC[C@H]2OCC(F)F)cc(C(=O)Nc2nnc(-n3nccc3C)s2)oc1=O

(A)
1. 5 to 20 nM
2. 5 to 20 nM

====

- Target Or System: hcGAS (Homo sapiens)
- Assay Name: hcGAS LCMS assay (direct measurement of cGAMP production)
- Type: biochemical
- Test Settings: 0.5 nM hcGAS, 100 μM ATP, 100 μM GTP, 25 nM dsDNA, 4 h incubation
pIC50: −log10 of the molar value.
Reported Property: pIC50

Worked examples, 6 compounds total:
(Q) What reported pIC50 corresponds to COc1c(NCCOC(F)F)cc(C(=O)Nc2nnc(-n3nccc3C)s2)oc1=O on hcGAS (Homo sapiens)?
(A) 7.70 to 8.30

(Q) # query: pIC50 | item COC[C@H](Cc1ccccc1)Nc1cc(C(=O)Nc2nnc(-n3nccc3C)s2)oc(=O)c1OC | system: hcGAS (Homo sapiens)
(A) 6.70 to 7.22

(Q) What reported pIC50 corresponds to COc1c(N2C[C@H](OC)CC2=O)cc(C(=O)Nc2nnc(-n3nccc3C)s2)oc1=O on hcGAS (Homo sapiens)?
(A) 7.22 to 7.70

(Q) Given the entry COc1c(NC[C@@H](C)OC)cc(C(=O)Nc2nnc(-n3nccc3C)s2)oc1=O , what pIC50 was observed with hcGAS (Homo sapiens)?
(A) 7.70 to 8.30

(Q) Lookup: pIC50 / hcGAS (Homo sapiens) / COc1c(N[C@H]2COC[C@H]2OC)cc(C(=O)Nc2nnc(-n3nccc3C)s2)oc1=O
(A) 7.70 to 8.30

(Q) Request body: readout pIC50, system hcGAS (Homo sapiens), query COCCNc1cc(C(=O)Nc2nnc(-n3nccc3N)s2)oc(=O)c1OC . Return the value.
(A) 7.70 to 8.30

Dear colleague, could you send me pIC50 for each of the items below? Thanks.
1. COc1c(N2CC[C@H](OC)C2)cc(C(=O)Nc2nnc(-n3nccc3C)s2)oc1=O
2. COc1c(NCC2(OC)CC2)cc(C(=O)Nc2nnc(-n3nccc3C)s2)oc1=O

(A)
1. 7.70 to 8.30
2. 7.70 to 8.30

====

- Target Or System: hcGAS (Homo sapiens)
- Assay Name: hcGAS Kinase-Glo assay (ATP depletion)
- Type: biochemical
- Test Settings: 40 nM hcGAS, 100 μM ATP, 100 μM GTP, 25 nM dsDNA, 3 h incubation
Reported Property: IC50

(Q) Give its IC50 value. Item: COc1c(N[C@@H]2CCS(=O)(=O)C2)cc(C(=O)Nc2nnc(-n3nccc3C)s2)oc1=O
(A) 30 to 100 nM

(Q) Any idea what IC50 was measured for COc1c(NC(C)C)cc(C(=O)Nc2nnc(-c3c(Cl)ccn3C)s2)oc1=O ?
(A) 10 to 30 nM

(Q) // lookup IC50 for COc1c(NC23CC(C2)C3)cc(C(=O)Nc2nnc(-n3nccc3C)s2)oc1=O
(A) 10 to 30 nM

Please give IC50 for each item listed below.
1. CNCCNc1cc(C(=O)Nc2nnc(-n3nccc3C)s2)oc(=O)c1OC
2. COc1c(N2C[C@H](OC)[C@H](OC)C2)cc(C(=O)Nc2nnc(-n3nccc3C)s2)oc1=O
3. COc1c(N[C@H]2CC[C@@H](O)CC2)cc(C(=O)Nc2nnc(-n3nccc3C)s2)oc1=O
4. COc1c(N2CCCC2=O)cc(C(=O)Nc2nnc(-n3nccc3C)s2)oc1=O
5. COc1c(NCCCO)cc(C(=O)Nc2nnc(-n3nccc3C)s2)oc1=O

(A)
1. ≥ 100 nM
2. 10 to 30 nM
3. 10 to 30 nM
4. < 10 nM
5. 10 to 30 nM

====

- Target Or System: hcGAS (Homo sapiens, UniProt Q8N884)
- Assay Name: hcGAS LCMS assay (direct measurement of cGAMP production)
- Format: biochemical
- Test Settings: 0.5 nM hcGAS, 100 μM ATP, 100 μM GTP, 25 nM dsDNA, 4 h incubation
Could you please report measured IC50 for the items listed next?

Sample answers from the record:
(Q) Which IC50 value is on record for COc1c(NCCO)cc(C(=O)Nc2nnc(-n3nccc3C)s2)oc1=O ?
(A) 20 to 60 nM

(Q) What IC50 value was documented for this molecule, COc1c(N[C@@H]2CCC[C@@H]2O)cc(C(=O)Nc2nnc(-c3c(Cl)ccn3C)s2)oc1=O ?
(A) 5 to 20 nM

Quick batch: IC50 for everything below.
1. COc1c(NC2COC(C)(C)OC2)cc(C(=O)Nc2nnc(-n3nccc3C)s2)oc1=O
2. COc1c(N[C@H]2CCCC[C@@H]2OC)cc(C(=O)Nc2nnc(-n3nccc3C)s2)oc1=O
3. COc1c(N2C[C@H](O)[C@H](OC)C2)cc(C(=O)Nc2nnc(-n3nccc3C)s2)oc1=O (racemic)

(A)
["5 to 20 nM", "5 to 20 nM", "5 to 20 nM"]

====

Hi there, I'd appreciate the recorded IC50 for every entry that follows.
- Target Or System: hcGAS (Homo sapiens, UniProt Q8N884)
- Assay Name: hcGAS LCMS assay (direct measurement of cGAMP production)
- Assay type: biochemical
- Test Settings: 0.5 nM hcGAS, 100 μM ATP, 100 μM GTP, 25 nM dsDNA, 4 h incubation

Examples from the recorded data:
(Q) # input molecule: COc1c(N[C@H]2CCC[C@H]2OC(F)F)cc(C(=O)Nc2nnc(-n3nccc3C)s2)oc1=O [Compound 212] ; wanted: its IC50
(A) 5 to 20 nM

(Q) IC50 for COc1c(NC23CC(O)(C2)C3)cc(C(=O)Nc2nnc(-n3nccc3C)s2)oc1=O [Compound 126] ?
(A) 5 to 20 nM

(Q) Give the measured IC50 of Cc1ccnn1-c1nnc(NC(=O)c2cc3c(c(=O)o2)OCCN3[C@H]2CCC[C@H]2C#N)s1 [Compound 224] .
(A) < 5 nM

// switching to the query molecule
(Q) What IC50 value was documented for this molecule, COCC(C)(C)Nc1cc(C(=O)Nc2nnc(-n3nccc3C)s2)oc(=O)c1OC [Compound 76] ?
(A) 5 to 20 nM

====

- Target Or System: hcGAS (Homo sapiens)
- Assay Name: hcGAS LCMS assay (direct measurement of cGAMP production)
- Type: biochemical
- Test Settings: 0.5 nM hcGAS, 100 μM ATP, 100 μM GTP, 25 nM dsDNA, 4 h incubation
pIC50: −log10 of the molar value.
Reported Property: pIC50

Reference set, count: 6
(Q) Can you share its pIC50? I mean this molecule: COc1c(N2CCC[C@@H]2CC#N)cc(C(=O)Nc2nnc(-n3nccc3C)s2)oc1=O
(A) 7.22 to 7.70

(Q) Need pIC50 of COc1c(N[C@H]2CCCC[C@H]2OC)cc(C(=O)Nc2nnc(-n3nccc3C)s2)oc1=O , thanks.
(A) 7.70 to 8.30

(Q) For COc1c(NC2CCCC2(C)O)cc(C(=O)Nc2nnc(-n3nccc3C)s2)oc1=O (racemic) , what is its reported pIC50?
(A) > 8.30

(Q) What value of pIC50 has been recorded for this entry: COc1c(N2CCCC2)cc(C(=O)Nc2nnc(-n3nccc3C)s2)oc1=O
(A) 7.70 to 8.30

(Q) Entry COCCOc1c(NC23CC(C2)C3)cc(C(=O)Nc2nnc(-n3nccc3N)s2)oc1=O has what pIC50?
(A) 7.70 to 8.30

(Q) Param item = COc1c(N[C@H]2CC[C@H](OC)CC2)cc(C(=O)Nc2nnc(-n3nccc3C)s2)oc1=O ; retrieve measured pIC50.
(A) 7.22 to 7.70

Kindly give each listed record's pIC50.
1. COc1c(NC23CC(C2)C3)cc(C(=O)Nc2nnc(-c3c(Cl)ccn3C)s2)oc1=O
2. COc1c(N[C@H](C)[C@@H](C)OC)cc(C(=O)Nc2nnc(-n3nccc3C)s2)oc1=O

(A)
> 8.30
> 8.30

Origin of measurements: patent US20240270740A1
